Examples of binders with documented Anti-CD28 Fab signal in the presence of CD28 follow.
# experimental system: T1, Anti-CD28 Fab (SEQ ID NOs: 202, 203)
# T1 construct: biotinylated and captured on neutravidin coated plates in the phage ELISA
# T1 sequence (VH, as listed by the source, chain 1 of 2): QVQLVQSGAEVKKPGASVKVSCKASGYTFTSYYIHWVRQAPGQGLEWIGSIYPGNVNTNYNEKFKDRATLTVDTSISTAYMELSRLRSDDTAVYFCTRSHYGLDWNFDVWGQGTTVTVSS
# T1 sequence (VL, as listed by the source, chain 2 of 2): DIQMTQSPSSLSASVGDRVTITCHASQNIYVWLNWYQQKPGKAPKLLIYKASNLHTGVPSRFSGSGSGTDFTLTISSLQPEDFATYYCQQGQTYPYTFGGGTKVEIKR
# test description: phage ELISA, Fab on plate, CD28 antigen as competitor
observable: Anti-CD28 Fab signal in the presence of CD28

[
  {
    "binder": "YCEGHHPWYVQKCL [Phage-621]",
    "assay result": 0.07
  },
  {
    "binder": "YCEGHFPLYMNKCL [Phage-675]",
    "assay result": 0.08
  },
  {
    "binder": "YCEGHLVQYMQKCL [Phage-669]",
    "assay result": 0.06
  },
  {
    "binder": "YCEGHLQEHMAKCL [Phage-684]",
    "assay result": 0.05
  },
  {
    "binder": "YCEGHSEMYMSKCL [Phage-741]",
    "assay result": 0.09
  },
  {
    "binder": "YCLGHSWPYIHKCY [Phage-602]",
    "assay result": 0.07
  },
  {
    "binder": "YCAGHAEEYMLKCL [Phage-737]",
    "assay result": 0.07
  },
  {
    "binder": "YCDGHSMMYMQKCL [Phage-695]",
    "assay result": 0.06
  }
]
